Target: Serine/threonine-protein kinase PAK 4 (Homo sapiens)

# structure-string, Ki
records = [
    ("COCCNc1nc2ccc(C#CC3(O)CCCCC3)cc2n1-c1ncnc(N)n1", "3.3 nM"),
]

---

These molecules were tested on Serine/threonine-protein kinase PAK 4 (Homo sapiens, UniProt O96013); pIC50 is the recorded read-out.
Sequence (O96013 whole entry): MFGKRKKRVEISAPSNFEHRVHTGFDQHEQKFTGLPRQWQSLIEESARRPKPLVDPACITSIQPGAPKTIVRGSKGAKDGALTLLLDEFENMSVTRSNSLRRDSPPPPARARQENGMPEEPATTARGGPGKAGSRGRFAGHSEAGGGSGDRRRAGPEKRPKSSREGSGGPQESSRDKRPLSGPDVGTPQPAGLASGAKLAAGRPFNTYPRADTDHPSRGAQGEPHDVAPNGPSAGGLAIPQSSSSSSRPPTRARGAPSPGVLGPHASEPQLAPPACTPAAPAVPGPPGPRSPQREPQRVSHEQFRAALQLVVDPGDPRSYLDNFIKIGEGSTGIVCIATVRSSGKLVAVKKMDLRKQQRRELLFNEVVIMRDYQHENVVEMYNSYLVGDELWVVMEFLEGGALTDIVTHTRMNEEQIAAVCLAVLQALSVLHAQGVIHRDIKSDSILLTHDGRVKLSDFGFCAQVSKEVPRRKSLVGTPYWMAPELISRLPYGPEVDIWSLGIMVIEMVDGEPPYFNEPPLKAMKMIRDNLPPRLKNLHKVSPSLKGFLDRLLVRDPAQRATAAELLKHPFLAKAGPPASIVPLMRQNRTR
pIC50: −log10 of the molar value.

# structure-string, pIC50
measured = [
    ("Fc1cccc(Nc2nc(NC3CCNCC3)c3cc[nH]c3n2)c1", 6.78),
    ("N[C@H]1CC[C@H](Nc2nc(Nc3cccc(Cl)c3)nc3[nH]ccc23)CC1", 7.69),
    ("Nc1ccc(/C=C/C(=O)NCc2cc3cc(-c4ccc(C(=O)N5CCC(F)(F)CC5)cc4)cc(-c4ccc(F)cc4)c3o2)cn1", 7.00),
    ("c1ccc(Nc2nc(NC3CCNCC3)c3cc[nH]c3n2)cc1", 5.53),
    ("N[C@H]1CCCN(c2nc(Nc3cccc(Cl)c3)nc3[nH]ccc23)C1", 6.64),
]
